Where do these numbers come from? They come from ChEMBL document CHEMBL1201862.

molecular target: Ataxin-2 (Homo sapiens); assay: qHTS for Inhibitors of ATXN expression.; format: functional
Screen size: about 400,000 compounds; about 2,100 (0.53%) were called active. Roughly 14% stayed inconclusive and do not appear here. How the calls were made is not given here. For the sample, actives were picked, then their nearest neighbours and some compounds at random.
Response enum: True = active, False = inactive

Solved entries:
smiles_representation=O=C(CCl)N1CCN(S(=O)(=O)c2ccc3ccccc3c2)CC1 classification=True
smiles_representation=Cc1ccc(S(=O)(=O)N2CCCCC2)cc1C(=O)N(C)CC(=O)Nc1ccc(Cl)c(C(F)(F)F)c1 classification=True
smiles_representation=O=C(Cc1cccs1)N1CCN(S(=O)(=O)c2ccc(Cl)c(C(F)(F)F)c2)CC1 classification=False
smiles_representation=O=[N+]([O-])c1ccccc1Oc1ncccc1[N+](=O)[O-] classification=True
smiles_representation=Cc1ccc2nc3c(cc(C(N)=S)c(=N)n3CCCOC(C)C)c(=O)n2c1 classification=False
smiles_representation=COc1cccc(CN(C)C(=O)c2cc(S(=O)(=O)N3CCCC3)ccc2C)c1OC classification=False
smiles_representation=O=C(c1cnc(Cl)c(Cl)c1)N1CCN(S(=O)(=O)c2ccc3ccccc3c2)CC1 classification=True
smiles_representation=COCOc1ccc(/C=C2/Oc3cc(OCOC)cc(OCOC)c3C2=O)c(OCOC)c1 classification=False

I'd appreciate the recorded outcome for Cc1ccc(S(=O)(=O)N2CCCCC2)cc1C(=O)Nc1ccc(S(=O)(=O)Nc2ncccn2)cc1 from this test.
False

Param item: Cc1ccc(S(=O)(=O)N2CCCN(C(=O)c3ccc(-n4cccn4)cc3)CC2)cc1
False

###

target: Ataxin-2 (Homo sapiens) (UniProt Q99700); assay: qHTS for Inhibitors of ATXN expression.; type: functional
Sequence (Q99700 whole entry): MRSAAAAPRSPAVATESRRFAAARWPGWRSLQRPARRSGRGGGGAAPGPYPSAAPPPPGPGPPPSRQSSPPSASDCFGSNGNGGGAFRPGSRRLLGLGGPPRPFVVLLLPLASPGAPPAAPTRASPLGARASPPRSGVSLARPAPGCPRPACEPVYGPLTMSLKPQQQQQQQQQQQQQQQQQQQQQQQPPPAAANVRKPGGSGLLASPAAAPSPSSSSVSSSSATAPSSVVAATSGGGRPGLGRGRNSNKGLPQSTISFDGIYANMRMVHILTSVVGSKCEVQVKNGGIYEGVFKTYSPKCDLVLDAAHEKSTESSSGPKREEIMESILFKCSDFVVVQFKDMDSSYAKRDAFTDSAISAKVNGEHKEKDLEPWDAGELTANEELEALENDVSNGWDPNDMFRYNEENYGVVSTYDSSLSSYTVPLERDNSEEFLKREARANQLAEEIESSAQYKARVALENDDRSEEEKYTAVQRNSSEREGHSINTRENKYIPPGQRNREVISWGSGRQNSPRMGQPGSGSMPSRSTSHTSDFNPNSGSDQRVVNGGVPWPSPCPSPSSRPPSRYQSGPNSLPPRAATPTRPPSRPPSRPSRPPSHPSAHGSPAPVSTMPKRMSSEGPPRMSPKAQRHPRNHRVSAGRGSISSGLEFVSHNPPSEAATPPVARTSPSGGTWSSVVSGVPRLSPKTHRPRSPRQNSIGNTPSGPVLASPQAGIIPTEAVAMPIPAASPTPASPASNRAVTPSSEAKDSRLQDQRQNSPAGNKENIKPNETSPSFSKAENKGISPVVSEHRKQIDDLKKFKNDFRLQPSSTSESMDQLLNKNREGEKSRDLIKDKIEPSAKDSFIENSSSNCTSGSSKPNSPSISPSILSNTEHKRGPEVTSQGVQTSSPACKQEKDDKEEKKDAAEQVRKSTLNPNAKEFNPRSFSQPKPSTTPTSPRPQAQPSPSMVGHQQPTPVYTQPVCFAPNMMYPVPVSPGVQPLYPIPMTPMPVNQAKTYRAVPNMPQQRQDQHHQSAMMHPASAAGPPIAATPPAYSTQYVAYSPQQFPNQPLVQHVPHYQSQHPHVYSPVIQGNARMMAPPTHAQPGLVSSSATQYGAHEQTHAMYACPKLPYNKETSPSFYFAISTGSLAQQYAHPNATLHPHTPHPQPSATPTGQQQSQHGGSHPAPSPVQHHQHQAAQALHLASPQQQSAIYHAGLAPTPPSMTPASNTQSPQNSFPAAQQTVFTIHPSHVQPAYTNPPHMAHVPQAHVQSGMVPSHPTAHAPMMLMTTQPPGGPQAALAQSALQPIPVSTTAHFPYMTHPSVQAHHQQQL
Hit rate of the full screen: of about 400,000 compounds, about 2,100 (0.53%) were called active. About 14% were inconclusive and are not listed. No rule for the calls is given here. Many of the other results were omitted from the sample, so actives are more common in it than they were.
The reply should be one of these categories: 1 (yes) (active), 0 (no) (inactive)

molecule=COc1ccc(CCNC(=O)Cc2c(C)c3ccc(O)c(C)c3oc2=O)cc1OC classification="0 (no)"
molecule=COc1ccc(N2C(=O)c3cccc4c(N(C)CCO)ccc(c34)C2=O)cc1 classification="0 (no)"
molecule=COc1ccc(OC)c(NC(=O)CSc2nc3nc(O)cc(O)c3s2)c1 classification="0 (no)"
molecule=CCCC(/C=C/c1ccc(OC(C)=O)cc1)=C1/c2ccccc2C(=O)N1c1ccccc1 classification="0 (no)"
molecule=O=C(NNC(=O)c1cc(-c2ccc(Br)cc2)nc2ccccc12)c1csc(N2CCOCC2)n1 classification="0 (no)"

Each molecule tested received a call. Report the one for Cc1sc2c(c1C)C(O)=C(/C=N/c1ccccn1)S(=O)(=O)N2C .
0 (no)

S=C(NCCCN1CCOCC1)N1CCN(c2nc(-c3ccc(Cl)cc3)cs2)CC1 ?
1 (yes)

What do you have for O=C(Cc1csc(Nc2nc(S)nc3ccccc23)n1)NCCCN1CCN(c2cccc(Cl)c2)CC1 ?
0 (no)

O=C(NC1CCCC1)c1cc2c(=O)n3ccccc3nc2s1 ?
0 (no)

Now consider CCOc1ccc(OCC)c(NC(=O)CN(c2ccc(C)cc2)S(=O)(=O)c2c(C)n[nH]c2C)c1 .
1 (yes)

Would you kindly repeat that for CCC1CCCCN1CCCNC(=O)c1cc2c(Cl)nc3ccccc3c2s1 (configuration not stated) ?
1 (yes)

And the next one, COC(=O)C1=CN(CC2CCCO2)C=C(C(=O)OC)C1c1cccc(O)c1 (configuration not stated) ?
0 (no)

What about O=C(Nc1ccc(F)cc1)c1sc2cc(C(F)(F)F)cnc2c1-c1cccs1 ?
0 (no)
